Reference source for all entries: ChEMBL document CHEMBL3286122

target-entity: Retinol-binding protein 4 (Homo sapiens)
procedure-summary: Displacement of [3H]-retinol from human recombinant RBP4 by scintillation proximity assay
Task for the reader: assign each of the following compounds its reported log10 IC50.
Hey, these are logged values: log10 of IC50, µM being the unit before logging.

>  <smi>
COC(=O)c1ccccc1NC(=O)N1CCC(c2ccccc2C(F)(F)F)CC1

>  <target-entity>
Retinol-binding protein 4 (Homo sapiens)

>  <log10 IC50>
-1.04

$$$$
>  <smi>
COc1ccc(Cl)cc1NC(=O)N1CCN(c2ccccc2)CC1

>  <target-entity>
Retinol-binding protein 4 (Homo sapiens)

>  <log10 IC50>
1.48

$$$$
>  <smi>
COc1ccc(Cl)cc1NC(=O)N1CCN(c2ncccc2Cl)CC1

>  <target-entity>
Retinol-binding protein 4 (Homo sapiens)

>  <log10 IC50>
0.40

$$$$

I need log10 IC50 for every entry listed below, if you could help.
1. COc1ccc(Cl)cc1NC(=O)N1CCN(Cc2c(Cl)cccc2Cl)CC1
2. O=C(Cc1ccccc1C(F)(F)F)N1CCN(c2ncccc2C(F)(F)F)CC1

Key:
1: 0.65; 2: 0.56

For each of the compounds below, state log10 IC50.
1. COC(=O)c1cccc(C(=O)N2CCC(c3ccccc3C(F)(F)F)CC2)c1
2. FC(F)(F)c1ccnc(N2CCC(c3ccccc3C(F)(F)F)CC2)n1

Key:
-0.08
-0.57

Return reported log10 IC50 values for all items listed beneath this line.
1. O=C(c1nccs1)N1CCC(c2ccccc2C(F)(F)F)CC1
2. COc1ccc(Cl)cc1NC(=O)N1CCN(c2ccccc2Cl)C(=O)C1

Key:
[-1.29, 0.56]

----------
target-entity: UniProt:P02753
procedure-summary: Inhibition of human recombinant RBP4-transthyretin interaction by FRET analysis
pIC50: −log10 of the molar value.
Grouping by measured pIC50 is done with the following cut points: small value: < 6; mid value: ≥ 6 and < 7; large value: ≥ 7

Examples with answers:
>  <smi>
FC(F)(F)c1ccnc(N2CCC(c3ccccc3C(F)(F)F)CC2)n1

>  <target-entity>
UniProt:P02753

>  <class-name>
large value

$$$$
>  <smi>
FC(F)(F)c1cccc(CN2CCN(c3ncccc3C(F)(F)F)CC2)c1

>  <target-entity>
UniProt:P02753

>  <class-name>
small value

$$$$
>  <smi>
COc1ccc(Cl)cc1NC(=O)N1CCN(Cc2c(Cl)cccc2Cl)CC1

>  <target-entity>
UniProt:P02753

>  <class-name>
small value

$$$$
>  <smi>
O=C(c1cccc(C(F)(F)F)c1)N1CCC(c2ccccc2C(F)(F)F)CC1

>  <target-entity>
UniProt:P02753

>  <class-name>
small value

$$$$
>  <smi>
O=C(c1nccs1)N1CCC(c2ccccc2C(F)(F)F)CC1

>  <target-entity>
UniProt:P02753

>  <class-name>
large value

$$$$

# next compound below
Exercise: Quick check: band for COc1ccc(Cl)cc1NC(=O)N1CCN(c2ncnc3sc4c(c23)CCC4)CC1
Key: mid value

----------
target-entity: Retinol-binding protein 4 (Homo sapiens, UniProt P02753)
procedure-summary: Displacement of [3H]-retinol from human recombinant RBP4 by scintillation proximity assay
outcome-measure: pIC50
Numbers only, as −log10 of the molar value.

Hi there! I need pIC50 for each item below, if you can.
1. COc1ccc(Cl)cc1NC(=O)N1CCN(c2ccccc2C(F)(F)F)CC1
2. Cn1cnc(C(=O)N2CCC(c3ccccc3C(F)(F)F)CC2)c1

Key:
1. 7.15
2. 6.96

Exercise: GET pIC50 where system = Retinol-binding protein 4 (Homo sapiens, UniProt P02753) and item = COc1ccc(Cl)cc1NC(=O)N1CCN(c2ncccc2C(F)(F)F)CC1
Key: 6.64
